System: human GnRH receptor (Homo sapiens, UniProt P30968)
Sequence (P30968 1-328): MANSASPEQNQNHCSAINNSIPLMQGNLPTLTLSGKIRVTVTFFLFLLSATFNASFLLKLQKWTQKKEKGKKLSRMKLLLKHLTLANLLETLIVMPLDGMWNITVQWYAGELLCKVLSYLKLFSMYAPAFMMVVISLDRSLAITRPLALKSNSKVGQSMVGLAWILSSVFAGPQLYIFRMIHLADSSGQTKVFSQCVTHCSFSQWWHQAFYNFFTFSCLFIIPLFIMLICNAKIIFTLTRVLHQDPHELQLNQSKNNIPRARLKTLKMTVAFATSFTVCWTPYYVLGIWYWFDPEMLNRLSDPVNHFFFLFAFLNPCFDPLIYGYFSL
Protocol Summary: IP-One HTRF assay with buserelin (at EC80) stimulation
Conditions: CHO cells stably expressing human GnRH receptor, read-out: Potency in IP-One HTRF assay, given as IC50
Measured Parameter: log10 IC50 (log10 of the value in µM)

>  <Molecule>
CC1N(S(=O)(=O)c2ccc(F)cc2)c2ccc(C(=O)NCc3ccccc3Cl)cc2C12CCOCC2 (single isomer, unassigned) [Example 2.1]

>  <log10 IC50>
0.97

$$$$
>  <Molecule>
CC1N(S(=O)(=O)c2ccc(F)cc2)c2ccc(C(=O)NCc3ccccc3S(C)(=O)=O)cc2C12CCOCC2 (stereo not drawn)

>  <log10 IC50>
0.68

$$$$
>  <Molecule>
O=C(O)c1cccc(NC(=O)c2ccc3c(c2)C2(CCS(=O)(=O)CC2)C(C2CC2)N3S(=O)(=O)c2ccc(F)cc2)c1 (single isomer, unassigned) [Example 49.2]

>  <log10 IC50>
-0.96

$$$$
>  <Molecule>
CC1N(S(=O)(=O)c2ccc(F)cc2)c2ccc(C(=O)NCc3ncc(F)cc3Cl)cc2C12CCOCC2 (stereo not drawn)

>  <log10 IC50>
-0.46

$$$$
>  <Molecule>
O=C(Nc1ccc2c(c1)C1(CCS(=O)(=O)CC1)C(C1CC1)N2S(=O)(=O)c1ccc(F)cc1)C1CCCCC1 (stereo not drawn)

>  <log10 IC50>
-1.41

$$$$
